Target: T1, Human fibrinogen protein (ThermoFisher, RP-43142) (human, UniProt P02671 20-629; P02675 31-491; P02679 27-453, limits assumed, natural sulfotyrosines)
T1 construct: mature; Native dimer with 3 pairs of non-identical chains; also called gamma-fibrinogen; γ fibrinogen protein
T1 sequence (looked up) 1: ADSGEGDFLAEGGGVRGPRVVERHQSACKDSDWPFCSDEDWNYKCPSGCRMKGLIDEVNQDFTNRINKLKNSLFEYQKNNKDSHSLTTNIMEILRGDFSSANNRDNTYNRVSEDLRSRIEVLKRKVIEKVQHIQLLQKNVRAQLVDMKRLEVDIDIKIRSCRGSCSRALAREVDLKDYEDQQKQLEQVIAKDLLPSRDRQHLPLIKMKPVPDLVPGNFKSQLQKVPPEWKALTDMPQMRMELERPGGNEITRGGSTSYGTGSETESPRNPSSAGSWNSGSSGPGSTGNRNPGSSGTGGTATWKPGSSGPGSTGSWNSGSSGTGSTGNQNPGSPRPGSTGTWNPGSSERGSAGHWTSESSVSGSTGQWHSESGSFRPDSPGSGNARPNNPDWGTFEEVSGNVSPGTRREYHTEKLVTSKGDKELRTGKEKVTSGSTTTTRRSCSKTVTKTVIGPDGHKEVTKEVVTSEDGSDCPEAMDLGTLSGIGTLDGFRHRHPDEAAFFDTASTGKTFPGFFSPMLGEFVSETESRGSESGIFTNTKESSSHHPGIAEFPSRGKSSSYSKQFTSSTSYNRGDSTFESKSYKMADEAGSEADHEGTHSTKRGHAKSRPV
T1 sequence (looked up) 2: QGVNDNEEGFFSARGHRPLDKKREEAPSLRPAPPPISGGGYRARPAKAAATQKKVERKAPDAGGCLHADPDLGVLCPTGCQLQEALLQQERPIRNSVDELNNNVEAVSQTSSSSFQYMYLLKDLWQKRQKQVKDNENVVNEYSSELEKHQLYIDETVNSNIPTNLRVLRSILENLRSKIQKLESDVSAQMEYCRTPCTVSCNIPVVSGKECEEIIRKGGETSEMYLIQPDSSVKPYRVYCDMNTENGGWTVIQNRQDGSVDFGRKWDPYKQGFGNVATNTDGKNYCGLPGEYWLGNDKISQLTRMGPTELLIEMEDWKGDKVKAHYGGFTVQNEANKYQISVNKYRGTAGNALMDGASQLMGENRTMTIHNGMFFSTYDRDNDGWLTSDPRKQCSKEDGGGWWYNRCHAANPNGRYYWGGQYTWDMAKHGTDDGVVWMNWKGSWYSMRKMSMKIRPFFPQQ
T1 sequence (looked up) 3: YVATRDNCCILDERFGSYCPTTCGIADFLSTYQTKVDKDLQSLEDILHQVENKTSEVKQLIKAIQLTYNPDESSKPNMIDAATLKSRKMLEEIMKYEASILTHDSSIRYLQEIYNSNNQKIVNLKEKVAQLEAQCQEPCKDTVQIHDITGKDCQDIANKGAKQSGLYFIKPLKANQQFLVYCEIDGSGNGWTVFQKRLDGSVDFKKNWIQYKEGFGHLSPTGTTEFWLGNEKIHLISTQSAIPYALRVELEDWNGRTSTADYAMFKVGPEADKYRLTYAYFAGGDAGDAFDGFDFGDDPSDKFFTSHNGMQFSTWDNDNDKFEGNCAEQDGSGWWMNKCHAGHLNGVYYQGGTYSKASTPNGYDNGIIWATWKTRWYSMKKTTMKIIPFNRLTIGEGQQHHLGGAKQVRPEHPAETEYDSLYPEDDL
Assay: ELISA, 50 nM mAb
measure_name: binding normalized to PSGL-1
Returns: the value as a bare number; no unit string appended.

Data request: Record request: binding normalized to PSGL-1 value, item 09A08 (antibody, IgG4, V domains shown) VH: QVQLVQSGAAVKKPGESLKISCKGSGYTFSNYWIGWVRQMPGKGLEWMGIIYPGDSDTRYSPSFQGQVTISADKSISTAYLQWSSLKASDTAMYYCARHIVGPPKSAFDIWGQGTMVTVSS VL: DIVMTQTPLSLPVTLGQPASISCSSSQGLQKRDGNTYLNWFQQRPGQSPRRLIYKVSNRDSGVPDRFSGSGSGTDFTLKISRVEAEDVGVYYCMQGTHWPWTFGQGTRVEIK
Data returned: 0.05

Data request: Give its binding normalized to PSGL-1 value. Item: 09D04 (antibody, IgG4, V domains shown) VH: QVQLQQSGGGLVQPGGSLTLSCVGSGFDFRSYAMSWVRQAPGKGLEWVSGINNSGSKTYYADFVKGRFSVSRDNSKNIVWLRMRSLRAEDTAVYYCARRTFGPPHAWGQGTMVTVSS VL: DVVMTQSPLSLPVTPGEPASISCRSSQSLLHSNGYTYLEWYLHKPGQSPQLLIYLGSNRASGVPDRFSGSGSGTDFTLKISRVEAEDVGVYYCMHSLHIPFTFGPGTKVDIK
Data returned: 0.25

Data request: Give its binding normalized to PSGL-1 value. Item: 02G01 (antibody, IgG4, V domains shown) VH: EVQLVQSGAEVKKPGASVKVSCKASGYTFTSYGISWVRQAPGQGLEWMGWISAYNGNTNYAQKLQGRVTMTTDTSTSTAYMELRSLRSDDTAVYYCARVTRLPGGGYAFDIWGQGTMVTVSL VL: QSVLTQPPSASGTPGQRITISCSGSTSNIGNKHVYWYQQFPGAAPKLLIHNTNKRPSGVPDRFSGSKSGTSASLAISGLQSDDEADYYCAAWDGSLSAWVFGGGTKLTVL
Data returned: 0.07

Data request: Given the binder 06B02 (antibody, IgG4, V domains shown) VH: QVQLVESGPGLVKPSETLSLTCTVSGVSVSSYYWTWVRQSPGKGLEWIGHVHHSGISNYNPSLKSRVVMSVDTSKNYFSLKLRSVTAADTAVYYCARGGPRISPTNWGQGTLVTVSS VL: QPVLTQPPSVSKALRQTATLTCTGNSNNVGYQGATWLRQHQGHPPRLLSYRNNNRPSGISERFSASRSGNTATLTITGLQPDDEADYYCAAWDSSLSAWVFGGGTKLTVL , what is its reported binding normalized to PSGL-1?
Data returned: 0.03

Data request: Item under review: 03B01 (antibody, IgG4, V domains shown) VH: QMQLVQSGAEVKKPGASVKVSCRASGYRFSTYAISWVRQAPGQGLEWIGWISTHHGNTKYAQKFQDRVTMTADASTSIAYMELRSLRSDDTAVYYCAAAIGNYWGQGTLVTVSS VL: EIVLTQSPAILSVSPGERASLSCRASQSVSSKLAWYQQKPGQAPRLLIYGASTRATGIPPRFSGSGSGTDFTLTISSLEPEDFAVYYCQQRSNWPLTFGGGTKVEIK . Reported binding normalized to PSGL-1?
Data returned: 0.11

Data request: Given the entry 05H03 (antibody, IgG4, V domains shown) VH: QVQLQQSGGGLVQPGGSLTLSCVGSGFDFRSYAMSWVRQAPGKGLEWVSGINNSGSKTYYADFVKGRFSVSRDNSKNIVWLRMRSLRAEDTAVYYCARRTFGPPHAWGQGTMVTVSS VL: DIVMTQSPLSLSVTPGEPASISCRSSQSLLHSNGYKYLDWYLQKPGQSPQLLIYMGSNRASGVPDRFSGSGSGTDFTLKISRVEAEDVGVYYCMQGLQSPLTFGGGTKVEIE , report its measured binding normalized to PSGL-1.
Data returned: 0.29

Data request: Suppose we examine the binder 03D07 (antibody, IgG4, V domains shown) VH: EVKLLESGGGLVQPGGSLRLSCAASGFTFSSYALSWVRQAPGKGLEWVSAISGSGGNTYYADSVKGRFTISRDNSKNTLYLQMNSLRAEDTAVYYCAKVVGATNYWGQGTLVTVSS VL: DIVMTQTPLSLPVTLGQPASISCRSSQSLVYSDGHTYLSWFHQRPGQSPRRLIYKVSIRDSGVPDRFSGSGSGTDFTLKISRVEAEDVGVYYCMQRLQIPLTFGGGTKVEIK ; what binding normalized to PSGL-1 value has been reported?
Data returned: 0.06

Data request: Entry 02E06 (antibody, IgG4, V domains shown) VH: QVQLVQSGAEVKKPGASVKVSCKASGYSFTDYYMHWVRQAPGQGLEWMGWMNPNSGNTGYAQTFQGRVTMTRNTSISTAYMELSSLRSEDTAVYYCARGRRVRGTPTFEYWGQGTLVTVSS VL: QSVVTQPPSASGTPGQRVTISCSGRSSNIGSYTVNWFQHLPGTGPKLLIYGNNQRPSGVPGRFSGSKSGTSASLAISGLQSNDEATYYCAAWDDSLNGHYVFGTGTKVTVL : reported binding normalized to PSGL-1 = ?
Data returned: 0.2

Data request: Reported binding normalized to PSGL-1, binder 02E01 (antibody, IgG4, V domains shown) VH: EVQLVQSGGGVVQPGRSLRLSCAASGFTFSRYGMHWVRQAPGKGLEWVSVISYDGNNKYYADSVKGRFTISRDNSKNTVYLQMNSLRADDTAVYYCARNVPVTNFGYWGQGTLVTVSS VL: QSALTQPASVSGSPGQSITISCTGTSSDVGGYNYVSWYQQHPGKAPKLMIYDVSKRPSGVSNRFSGSKSGNTASLTISGLQAEDEADYYCSSYTRPGRVFGGGTKLTVL : ____
Data returned: -0.18

Data request: Can you look up the measured binding normalized to PSGL-1 of 05E08 (antibody, IgG4, V domains shown) VH: EVQLVQSGGGVVQPGRSLRLSCAASGFTFSTYAMHWVRQAPGKGLEWVAVISYDGSNKYYADSVKGRFTISRDNSRNTLFLQMNSLRDEDTAVYYCAKRGTMIRGERSLDFWGQGTLVTVSS VL: AIQMTQSPSFLSASVGDRVTITCRASQGINSWLAWYQQKPGTAPNLLIHAASTLQSGVPSRFSGSRSGTEFTLTISSLQPEDFATYYCQQLQSYPLTFGQGTRLEIK for me?
Data returned: 0.44
